experiment: soluble on expression in E. coli; label from the status in PepcDB or PDB records
property.label: soluble on expression in E. coli

| residues | measurement |
| --- | --- |
| MAHHHHHHMYEKTHVTTYPVMGCQISVGTTASRRSKGLNATRSGVDGALTSGTVDGRDPKSTGADNSVSLAYAVPAVKPVTYNDYRGFQVTMVNGTLAKINNICRWLDTALDKREKNGGWCMDVLAESVSSGKMETSFYCESIVQASHHVTHYCGQERANGVEYFAEVHSQQVFEKSAVSRTFDCPSAKFVYNSRFEEIPRQSDITTTQLNKETSDSGIPNGREAMIRYSPTSSEDGGRLNE | not soluble |
| MGSDKIHHHHHHMSDCQAKPETNYLSTSSGKYLTAFQRKLLLQNLQKSLVESYRQRIEIMLLADEGKTQRSICQTLGCCAATARHWTHIARSGMAHQWQDCPIGRPKAVNDQYLERLKELVNSSPRAHGYAFRRWTANWLGKHLAKEFGIEVSDRHIKRLLKQMGLSTLPKPSNVEQNSTEQVQGSKILICDLQSAGIPDDSEFLPINFAKLGKHLDIHGAKYICSVAYSATVQQYSGSFSFYRGISTLSSTS | not soluble |
| KPGKQIPTLEDAKKELKIPDQDKEQNGNIARQRHVVNAYAVGRIADEEGLFRFQLDDKGKWGNPQLLVKKVRHMKVRYIYVSGCPEDDDAGKEETFKYTDKFDSAQNAVTPAGVEVLLSSGTDTKIAASSDNHIYAYRIDATIRGGNVCANRTL | not soluble |

From: the DeepSol protein solubility set
